- tested target: TGIF1-HD (171-250) (Homo sapiens, UniProt Q15583 171-250)
- Sequence (Q15583 171-250): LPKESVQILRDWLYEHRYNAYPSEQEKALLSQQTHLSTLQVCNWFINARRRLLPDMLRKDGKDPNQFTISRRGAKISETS
- assay explanation: ITC
readout kind: Kd (nM)
Report the value in nM with no unit label.

Problem: Answer with the recorded Kd for the binder listed here: canonical TGACA palindrome 16mer (dsDNA) DNA 1: ATTGACAGCTGTCAAT DNA 2: ATTGACAGCTGTCAAT
Result: 728
